Target: DNA repair protein RAD52 homolog (Homo sapiens, UniProt P43351)
Sequence (P43351 whole entry): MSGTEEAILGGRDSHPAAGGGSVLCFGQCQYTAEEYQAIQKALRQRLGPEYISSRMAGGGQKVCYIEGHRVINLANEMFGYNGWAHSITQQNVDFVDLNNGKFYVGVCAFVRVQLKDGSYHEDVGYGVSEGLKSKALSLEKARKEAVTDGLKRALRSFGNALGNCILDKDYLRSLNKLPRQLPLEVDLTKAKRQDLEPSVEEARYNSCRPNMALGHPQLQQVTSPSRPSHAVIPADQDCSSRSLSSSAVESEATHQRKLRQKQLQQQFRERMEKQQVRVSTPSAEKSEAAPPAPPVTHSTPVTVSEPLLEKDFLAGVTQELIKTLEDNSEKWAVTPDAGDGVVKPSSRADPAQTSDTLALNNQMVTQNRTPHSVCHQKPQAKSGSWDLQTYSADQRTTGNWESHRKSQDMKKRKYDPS
Format: functional, biochemical
Calls of active or inactive are those of the source.
Entries and their AC50

- compound: "C(#Cc1ccccc1)C[N+]1(CC#Cc2cccc3ccccc23)CCCC1"
  measuredMetric: "AC50"
  value: "15.2 µM (active)"

INPUT: Recorded AC50 for "CCN1CCN(c2ccc(NC(=O)c3cc4ccccc4cc3OC)cc2C)CC1" , please?
OUTPUT: 18.2 µM (active)

INPUT: Can you look up the measured AC50 of "O=C1c2cccc(NCCCNCCO)c2C(=O)c2cccc(NCCCNCCO)c21" for me?
OUTPUT: < 0.15 µM (active)

INPUT: Recorded AC50 of "CN1CCCN(c2cc(-c3ccc4ccccc4c3)nc3ccnn23)CC1" , please.
OUTPUT: 1.57 µM (active)

INPUT: Looking for the measured AC50 of "COc1ccc(Cc2c(-c3ccc(OC)c(OC)c3)nc3c(C)cc(Br)cn23)c(C)c1" , can you help?
OUTPUT: 15.5 µM (active)

INPUT: Fill in the blank: the reported AC50 of Nc1ccc(N2CCN(CCCCN3C(=O)C4CCCN4C3=O)CC2)cc1 (configuration not stated) is ____.
OUTPUT: 1.29 µM (active)

INPUT: Given the entry "Cc1cc(C(C)(C)CC(C)(C)C)ccc1OCCOCC[N+](C)(C)Cc1ccccc1" , report its measured AC50.
OUTPUT: 20.4 µM (active)

* * *

Assay: Trypanosoma cruzi growth suppression in host cells – NIH3T3 host cells, beta-gal luminescence, confirmation (AID 2044);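 further: intracellular parasites grown in NIH/3T3 mouse fibroblasts as host cells; luminescent beta-galactosidase reporter signal from transgenic T. cruzi replicating inside host cells; inhibitors lower the luminescence signal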
Type: functional, cell-based
The source made the active and inactive calls.
Some molecules, each annotated with its measured EC50.

Example results:
- molecule: "CC(C)c1ccc(-n2c(-c3ccccc3)c[n+]3c2CCc2ccccc2-3)cc1"
  value: "< 100 nM (active)"
- molecule: "CN1CCN(CC(O)COCCOc2ccc(Br)cc2)CC1 (stereo unspecified)"
  value: "542 nM (active)"
- molecule: "Nc1nc2n(n1)C(c1cccs1)CC(c1ccc(Br)cc1)N2 (stereo unspecified)"
  value: "4370 nM (active)"
- molecule: "O=C(c1ccc2c(c1)OCO2)C1CCCN(C2CCN(CCc3ccccc3)CC2)C1 (stereo unspecified)"
  value: "1720 nM (active)"
- molecule: "COc1cccc(CC2(CO)CCCN(Cc3ccc(-c4ccco4)cc3)C2)c1 (stereo unspecified)"
  value: "621 nM (active)"

INPUT: I am curious: what EC50 value has been reported for "CN1CCC(N(C)C(=O)c2ccccc2Nc2ccc(SC(F)F)cc2)CC1" ?
OUTPUT: 384 nM (active)

* * *

Target: Heat shock factor protein 1 (Mus musculus, UniProt P38532)
Sequence (P38532 whole entry): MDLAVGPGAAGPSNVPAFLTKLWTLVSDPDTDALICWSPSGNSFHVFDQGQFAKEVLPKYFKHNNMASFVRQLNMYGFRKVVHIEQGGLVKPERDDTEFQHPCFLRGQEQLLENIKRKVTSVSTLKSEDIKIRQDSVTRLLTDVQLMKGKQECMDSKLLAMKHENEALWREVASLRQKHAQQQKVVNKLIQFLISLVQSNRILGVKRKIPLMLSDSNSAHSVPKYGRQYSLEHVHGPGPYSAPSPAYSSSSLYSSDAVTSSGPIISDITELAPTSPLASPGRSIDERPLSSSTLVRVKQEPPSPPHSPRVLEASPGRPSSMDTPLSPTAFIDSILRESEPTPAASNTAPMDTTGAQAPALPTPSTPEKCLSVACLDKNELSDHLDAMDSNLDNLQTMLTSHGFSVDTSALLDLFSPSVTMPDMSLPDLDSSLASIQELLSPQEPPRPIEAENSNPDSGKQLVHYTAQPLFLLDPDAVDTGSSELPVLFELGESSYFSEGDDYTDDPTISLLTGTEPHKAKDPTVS
Test: enhancement of HSF1-driven luciferase signal – cell-based, NIH3T3, luminescence, dose retest, confirmation (AID 435004);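 further: stress induced by proteasome inhibitor MG132 added 30 min after compound; luciferase reporter driven by HSF1 response element in NIH3T3 cells; actives raise luminescence as potentiators of the MG132 stress response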
Format: functional
Activity calls are given as the source filed them.
Pick from active, inactive when you respond.

- compound: "CSS(=O)(=O)c1cccc2cccnc12"
  classification: "active"

INPUT: What call does the record list for "CCOC(=O)CSc1nc2c(sc3ccc([N+](=O)[O-])cc32)c(=O)n1Cc1ccco1" ?
OUTPUT: inactive

INPUT: Each compound tested received a call. Report the one for "CCCc1cc(=O)oc2c3c(cc(OCC(=O)N[C@@H](C)C(=O)O)c12)OC(C)(C)CC3" .
OUTPUT: inactive

INPUT: What is the recorded call for this compound in the test? "Nc1nc(N)c(/C=N/c2ccc(Br)cc2)c(Nc2ccc(Br)cc2)n1"
OUTPUT: active

INPUT: How was "CC(C)CC(=O)Nc1ccc(N2CCOCC2)cc1" classified in this test?
OUTPUT: inactive

INPUT: Any idea what this test logged for "COc1ccc(CNC(=O)CN(Cc2ccccc2)C(=O)CCC(=O)Nc2nccs2)cc1" ?
OUTPUT: inactive

* * *

Target: 26S proteasome non-ATPase regulatory subunit 14 (Homo sapiens)
Sequence (O00487 whole entry): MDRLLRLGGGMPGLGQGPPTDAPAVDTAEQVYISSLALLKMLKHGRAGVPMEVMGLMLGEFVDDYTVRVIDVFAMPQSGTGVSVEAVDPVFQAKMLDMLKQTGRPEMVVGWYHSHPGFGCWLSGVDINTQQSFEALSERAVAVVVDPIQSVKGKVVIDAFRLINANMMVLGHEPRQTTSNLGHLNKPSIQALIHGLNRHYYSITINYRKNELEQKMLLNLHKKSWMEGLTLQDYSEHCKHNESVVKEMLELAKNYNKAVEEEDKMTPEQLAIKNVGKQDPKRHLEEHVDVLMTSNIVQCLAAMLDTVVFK
Assay: inhibition of proteasome subunit RPN11 – biochemical, fluorescence polarization, uHTS hits, confirmation (AID 602368)
Format: functional
The source made the active and inactive calls.
IC50 values for the compounds below.

- givenSmiles: "COc1cc([N+](=O)[O-])cc(/C=N/NC(=O)c2cc(-c3ccccc3)nc3ccccc23)c1O"
  testSystem: "26S proteasome non-ATPase regulatory subunit 14 (Homo sapiens)"
  IC50: "22.3 µM (active)"

Continue with the compound presented below.
INPUT: Please look up its IC50: "Cn1cncc1C#Cc1ccc2cc(C3(O)CCCCC3)oc(=O)c2c1"
OUTPUT: 32.5 µM (active)

* * *

Biological target: UniProt:Q9XUB2
Sequence (Q9XUB2 whole entry): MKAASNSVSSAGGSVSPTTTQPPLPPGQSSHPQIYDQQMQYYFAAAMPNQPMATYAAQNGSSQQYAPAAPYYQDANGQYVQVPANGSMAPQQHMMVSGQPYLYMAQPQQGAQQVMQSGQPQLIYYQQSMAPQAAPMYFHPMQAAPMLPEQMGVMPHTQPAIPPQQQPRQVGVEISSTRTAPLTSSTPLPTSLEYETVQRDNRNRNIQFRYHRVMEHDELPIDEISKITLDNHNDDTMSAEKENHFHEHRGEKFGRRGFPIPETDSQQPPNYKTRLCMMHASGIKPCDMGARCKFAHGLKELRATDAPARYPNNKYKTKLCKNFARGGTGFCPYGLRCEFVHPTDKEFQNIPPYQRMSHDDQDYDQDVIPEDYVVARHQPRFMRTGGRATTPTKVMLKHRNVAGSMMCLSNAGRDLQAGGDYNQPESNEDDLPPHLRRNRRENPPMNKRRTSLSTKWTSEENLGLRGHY
Test: potency of MEX-5 RNA-binding blockers – biochemical, C. elegans, fluorescence polarization, dose response (AID 1960)
Calls of active or inactive are those of the source.
Recorded EC50, one value per entry.

- compound: "O=S(=O)(c1ccccc1)N1CCC(O)(CSc2ccc(Cl)cc2)CC1"
  EC50: "> 300 µM (not active)"
- compound: "Brc1ccc(C2=CC(c3ccco3)n3ncnc3N2)cc1 (stereo not given)"
  EC50: "18.1 µM (active)"
- compound: "CCNc1nn2ccccc2c1/C=C(\\C#N)C(=O)OCC"
  EC50: "68.8 µM (active)"

Next, consider the following compound.
INPUT: Endpoint output: EC50 of CCOc1ccc(C2OC34CCCCC3C(C#N)(C#N)C2(C#N)C(=N)O4)cc1OC (stereo not given) . Value?
OUTPUT: 10.5 µM (active)

* * *

AC50 data for Cytochrome P450 2D6 (Homo sapiens) follow.

- compound: "Cc1cccc(NC(=O)C2CCN(S(=O)(=O)c3cccc4nsnc34)CC2)n1"
  AC50: "14.1 µM (inconclusive)"
- compound: "CC1=NN(C(=O)c2ccncc2)C(=O)[C@@H]1/N=N\\c1ccc2ccccc2c1"
  AC50: "3.16 µM (inconclusive)"
- compound: "O=C(OCc1cccc(F)c1)c1ccc2c(c1)-c1ccccc1C2=O"
  AC50: "0.355 µM (inconclusive)"
- compound: "Cn1c2c(c(=O)n(C)c1=O)C1(C(=O)Nc3ccccc31)C(C#N)=C(N)O2 (stereo not drawn)"
  AC50: "14.1 µM (inconclusive)"
- compound: "O=C1CC[C@](CCc2nc3ccccc3[nH]2)(c2ccccc2)C(=O)N1"
  AC50: "2.51 µM (inconclusive)"

INPUT: Which AC50 value belongs to O=C(O)c1ccc2c(c1)C(=O)N(C(Cc1ccc(O)cc1)C(=O)O)C2=O (stereo not drawn) ?
OUTPUT: 0.01 µM (inconclusive)

INPUT: What does the record list as AC50 for "NC(=O)CNCCC(c1ccccc1)c1ccccc1" ?
OUTPUT: 20 µM (inconclusive)

INPUT: Item under review: "CC(C)N1CCN(c2ccncc2S(=O)(=O)N2CCCCC2)CC1" . Reported AC50?
OUTPUT: 3.98 µM (inconclusive)

INPUT: # query: AC50 of entry "Clc1cccc(CSc2nnc(-c3sccc3-n3cccc3)o2)c1"
OUTPUT: 0.398 µM (inconclusive)

INPUT: Requested field: AC50. Item: "COc1cc(C(=O)NCc2cccc3ccccc23)cc(Cl)c1OC"
OUTPUT: 15.8 µM (inconclusive)

INPUT: Tell me the measured AC50 of "O=C(c1ccncc1)N1CCC2(CCN(Cc3ccncc3)CC2)CC1" , please.
OUTPUT: 25.1 µM (inconclusive)

INPUT: Which AC50 value is on record for "COc1cccc([C@H]2Oc3ccc(OC)cc3/C(=N\OC[C@@H](O)[C@@H]3O[C@@H]4OC(C)(C)O[C@@H]4[C@H]3O)[C@@H]2O)c1" ?
OUTPUT: 3.16 µM (inconclusive)

INPUT: # lookup: AC50 of "CCN(CC)CCOC(=O)c1c(C)n(C)c2ccc(OC)cc12"
OUTPUT: 28.2 µM (inconclusive)

INPUT: Could you share which AC50 value was measured for "COc1ccc(C(=O)N2CCC3(CCCN(Cc4ccncc4)C3)CC2)cc1" ?
OUTPUT: 12.6 µM (inconclusive)

INPUT: // AC50 lookup, key: COC(=O)C1(CC(C)C)C=C2C(=C(C(C)C)C(=O)C2C)CN1 (stereo not drawn)
OUTPUT: 25.1 µM (inconclusive)

INPUT: Please report the recorded AC50 for "FC(F)(F)c1ccccc1-c1nc(N2CCOCC2)c2ccccc2n1" .
OUTPUT: 25.1 µM (inconclusive)

INPUT: Field request: AC50 | item: O=C1C=C(c2cccs2)CC(c2cccs2)C1n1cnc([N+](=O)[O-])c1 (stereo not drawn)
OUTPUT: 15.8 µM (inconclusive)

INPUT: Please give the measured AC50 for this compound: "O=c1c(Oc2ccccc2Br)c(C(F)(F)F)oc2c(CN3CCCC3)c(O)ccc12"
OUTPUT: 17.8 µM (inconclusive)
